Experiment: Hepatocytes stability assay (human hepatocytes)
Assay type: in vitro ADME
Conditions: both sexes, human, cryopreserved hepatocytes, cryopreserved human hepatocytes (pool of 50 mixed gender); 1 μM test compound; 1×10^6 cell/mL; 37 degrees C; read-out: CLint (μL/min/million cells)
Procedure: In vitro metabolic stability was assessed using cryopreserved hepatocytes from male Sprague Dawley rats and a pool of 50 mixed gender humans (BioIVT, Baltimore, MD). […] Data was calculated as percent remaining by assuming zero-minute time point peak area ratio (analyte/IS) as 100% and dividing remaining time point peak area ratios by zero-minute time point peak area ratio. […] From a plot of log (ln) peak area against time, the slope of the line was determined. […]
Entries are sorted into classes by hepatocyte CLint at 1 μM as follows: range 1 = under 4 µL/min/1e6 cells, range 2 = from 4 µL/min/1e6 cells up to 20 µL/min/1e6 cells, range 3 = 20 µL/min/1e6 cells and over

Some solved entries appear below for comparison.
{"molecule": "O=C1COc2nnccc2[C@H]2CC[C@H](CC2)OCC2[C@@H](NS(=O)(=O)C3CC3)CCCN12 (stereo in doubt)", "class": "range 1"}
{"molecule": "Cc1ccc2c(c1)C1CCC(CC1)OC[C@H]1[C@@H](NS(C)(=O)=O)CCCN1C(=O)CO2 (stereo in doubt)", "class": "range 2"}
{"molecule": "CC1(S(=O)(=O)N[C@H]2CCCN3CCOc4ccccc4[C@H]4CC[C@H](CC4)OCC23)CC1 (stereo in doubt)", "class": "range 3"}

In: Which class does O=C1COc2ccccc2C2CCC(CC2)OC[C@H]2[C@@H](NS(=O)(=O)C(F)(F)F)CCCN12 (stereo in doubt) fall in?
Out: range 2

In: Which class does O=C1COc2ccccc2[C@H]2CC[C@H](CC2)OCC2[C@@H](NS(=O)(=O)CC3CC3)CCCN12 (stereo in doubt) fall in?
Out: range 3

In: Which class does Cc1cccc2c1OCC(=O)N1CCC[C@H](NS(C)(=O)=O)C1CO[C@H]1CC[C@@H]2CC1 (stereo in doubt) fall in?
Out: range 3

In: Which class does C[C@H](C(F)(F)F)S(=O)(=O)N[C@H]1CCCN2C(=O)COc3ccccc3C3CCC(CC3)OC[C@@H]12 (stereo in doubt) fall in?
Out: range 3

In: Which class does Cc1ccc2c(c1C)[C@H]1CC[C@H](CC1)OCC1[C@@H](NS(=O)(=O)C(C)C)CCCN1C(=O)CO2 (stereo in doubt) fall in?
Out: range 2

In: Which class does CS(=O)(=O)N[C@H]1CCCN2C(=O)COc3ccc(O)cc3[C@H]3CC[C@H](CC3)OCC12 (stereo in doubt) fall in?
Out: range 1

In: Which class does Cc1ncnc2c1[C@H]1CC[C@H](CC1)OCC1[C@@H](NS(C)(=O)=O)CCN1C(=O)CO2 (stereo in doubt) fall in?
Out: range 1

In: Which class does C[C@@H]1CCN2C(=O)COc3ccccc3[C@H]3CC[C@H](CC3)OCC2[C@H]1NS(C)(=O)=O (mixture of isomers) fall in?
Out: range 2
